Note to self: these molecules have Ki reported for 5-hydroxytryptamine receptor 2C (Sus scrofa) in various publications.
Property label: Ki (nM)

[
  {
    "Molecule": "c1ccc2c(c1)CCC2CCN1CCN(c2cccc3c2OCCO3)CC1 (stereo not given)",
    "Recorded measurement": 115
  }
]

A. COc1ccccc1N1CCN(C[C@@H](C(=O)NC(C)(C)C)c2ccccc2)CC1
B. c1ccc2c(c1)CC2CCN1CCN(c2cccc3c2OCCO3)CC1 (stereo not given)
C. Cc1nc2sccn2c(=O)c1CCN1CCC(=C(c2ccc(F)cc2)c2ccc(F)cc2)CC1
D. Cc1nc2n(c(=O)c1CCN1CCC(c3noc4cc(F)ccc34)CC1)CCCC2O (stereo not given)
QUERY: List the 4 entries from lowest Ki to highest Ki value. List labels; respect the requested ordering.
RESULT: C, D, B, A
(C: 2.51 nM, D: 47 nM, B: 151 nM, A: 3470 nM)
